Hi there, I'd appreciate the recorded pKi for every entry that follows.
- STUDY_SYSTEM: Carbonic anhydrase (Candida albicans (strain SC5314 / ATCC MYA-2876) (Yeast))
- Sequence (Q5AJ71 whole entry): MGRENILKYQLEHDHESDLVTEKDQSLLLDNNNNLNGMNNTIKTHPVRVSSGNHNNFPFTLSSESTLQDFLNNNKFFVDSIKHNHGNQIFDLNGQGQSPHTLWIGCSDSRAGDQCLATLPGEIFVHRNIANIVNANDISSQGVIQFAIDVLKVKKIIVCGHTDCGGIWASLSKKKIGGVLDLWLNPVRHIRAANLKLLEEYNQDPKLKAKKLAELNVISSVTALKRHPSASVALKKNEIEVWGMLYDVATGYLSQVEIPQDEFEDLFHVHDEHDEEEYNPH
- PROTOCOL: inhibition of Candida albicans recombinant Nce103 after 15 mins by stopped-flow CO2 hydration assay
Give bare numbers, as −log10 of the molar value.

Cc1cc(C)[n+](NC(=O)c2[nH]c3ccc(S(N)(=O)=O)cc3c2-c2ccccc2Cl)c(C)c1.[O-][Cl+3]([O-])([O-])[O-] 7.48
NNC(=O)c1[nH]c2ccc(S(N)(=O)=O)cc2c1-c1ccccc1Br 7.09
COc1cccc(-c2c(C(=O)NN)[nH]c3ccc(S(N)(=O)=O)cc23)c1 6.89
Cc1cc(C)[n+](NC(=O)c2[nH]c3ccc(S(N)(=O)=O)cc3c2-c2c(F)c(F)c(F)c(F)c2F)c(C)c1.[O-][Cl+3]([O-])([O-])[O-] 8.29
Cc1cc(C)[n+](NC(=O)c2[nH]c3ccc(S(N)(=O)=O)cc3c2-c2ccccc2)c(C)c1.[O-][Cl+3]([O-])([O-])[O-] 7.38
Cc1cc(C)[n+](NC(=O)c2[nH]c3ccc(S(N)(=O)=O)cc3c2-c2ccccc2Br)c(C)c1.[O-][Cl+3]([O-])([O-])[O-] 7.35
COc1cccc(-c2c(C(=O)N[n+]3c(C)cc(C)cc3C)[nH]c3ccc(S(N)(=O)=O)cc23)c1.[O-][Cl+3]([O-])([O-])[O-] 6.92
Cc1cc(C)[n+](NC(=O)c2[nH]c3ccc(S(N)(=O)=O)cc3c2-c2ccc(Cl)cc2)c(C)c1.[O-][Cl+3]([O-])([O-])[O-] 7.54

List pKi for every entry below, keeping the order given.
1. NNC(=O)c1[nH]c2ccc(S(N)(=O)=O)cc2c1-c1ccccc1Cl
2. Cc1cc(C)[n+](NC(=O)c2[nH]c3ccc(S(N)(=O)=O)cc3c2-c2ccccc2C)c(C)c1.[O-][Cl+3]([O-])([O-])[O-]
3. NNC(=O)c1[nH]c2ccc(S(N)(=O)=O)cc2c1-c1cccc(Cl)c1
4. NNC(=O)c1[nH]c2ccc(S(N)(=O)=O)cc2c1-c1ccc(F)cc1
5. Cc1cc(C)[n+](NC(=O)c2[nH]c3ccc(S(N)(=O)=O)cc3c2-c2ccc(F)cc2)c(C)c1.[O-][Cl+3]([O-])([O-])[O-]
6. NNC(=O)c1[nH]c2ccc(S(N)(=O)=O)cc2c1-c1ccc(Br)cc1
7. NNC(=O)c1[nH]c2ccc(S(N)(=O)=O)cc2c1-c1ccc(Cl)cc1

Result block:
[7.35, 7.21, 7.28, 7.21, 7.68, 7.03, 7.26]
